src = ChEMBL document CHEMBL1833835

tested on: Leishmania amazonensis; assay: Antiparasitic activity against promastigote form of Leishmania amazonensis IFLA/BR/67/PH8 after 48 hrs by MTT assay; type: functional, organism-based; settings: IFLA/BR/67/PH8, 48 h
parameter measured: IC50 (µM)
Give bare numbers, in µM.

Qu. Lab request: please report IC50 under test system Leishmania amazonensis for O=C(NCCO)c1ccc(CBr)c([N+](=O)[O-])c1
Ans. 23.1

Qu. Then this molecule: COC(=O)c1ccc(CBr)c([N+](=O)[O-])c1
Ans. 39.3

Qu. Queued: O=C(NCCCl)c1ccc(CCl)c([N+](=O)[O-])c1
Ans. 50.6

Now examine the next entry.
Qu. Give recorded IC50 with Leishmania amazonensis for the following molecule: O=C(NCCO)c1ccc(CCl)c([N+](=O)[O-])c1
Ans. 59.5
